- METHOD DESCRIPTION: clinical
- CONDITION INFO: human, in vivo, 150 mg, Median tmax
REPORTED ENDPOINT: Tmax

Give reported Tmax value for `C#Cc1cccc(Nc2ncnc3cc(OCCOC)c(OCCOC)cc23)c1`
1 to 3 h

----------
- METHOD DESCRIPTION: Motesanib plasma pharmacokinetics (LC-MS/MS, noncompartmental)
- Set-up: species or system human
- CONDITION INFO: human, in vivo, 100 mg; read-out: Overall median tmax
REPORTED ENDPOINT: Tmax

Give reported Tmax value for `CC1(C)CNc2cc(NC(=O)c3cccnc3NCc3ccncc3)ccc21`
0.6 to 2 h

----------
- METHOD DESCRIPTION: Motesanib plasma pharmacokinetics (LC-MS/MS, noncompartmental)
- Design: species or system human
- CONDITION INFO: human, in vivo, 100 mg; read-out: Mean estimated terminal elimination half-life (t1/2, z)
REPORTED ENDPOINT: half-life

Give reported half-life value for `CC1(C)CNc2cc(NC(=O)c3cccnc3NCc3ccncc3)ccc21`
4.8 to 8.6 h

----------
- METHOD DESCRIPTION: Motesanib plasma pharmacokinetics (LC-MS/MS, noncompartmental)
- Set-up: species or system human
- CONDITION INFO: human, in vivo, 150 mg
REPORTED ENDPOINT: Tmax (h)
Write the answer as a number in h, unit excluded.

Give reported Tmax value for `CC1(C)CNc2cc(NC(=O)c3cccnc3NCc3ccncc3)ccc21`
2

----------
- METHOD DESCRIPTION: Motesanib plasma pharmacokinetics (LC-MS/MS, noncompartmental)
- Set-up: species or system human
- CONDITION INFO: human, in vivo, week 3; 125 mg QD motesanib + 150 mg QD erlotinib; read-out: C24, median
REPORTED ENDPOINT: concentration at 24 h (ng/mL)
Write the answer as a number in ng/mL, unit excluded.

Give reported concentration at 24 h value for `CC1(C)CNc2cc(NC(=O)c3cccnc3NCc3ccncc3)ccc21`
44.7

----------
- METHOD DESCRIPTION: clinical
- CONDITION INFO: human, in vivo, 100 mg, Median tmax
REPORTED ENDPOINT: Tmax

Give reported Tmax value for `C#Cc1cccc(Nc2ncnc3cc(OCCOC)c(OCCOC)cc23)c1`
2 to 6 h
